Origin of the recorded values: patent US20260116991A1

targetDesc: biotinylated labeled human GPC3 protein (produced in-house) (human, UniProt P51654 25-559, limits assumed, biotinylated (Dojindo, Cat. No. LK03); sites not stated)
experimentalDetails: ELISA, biotinylated human GPC3 protein
measurementName: OD450 at 0.02 nM (OD450)
Reply numerically in OD450, unit not repeated.

Look at this binder and give its reported OD450 at 0.02 nM. hAb006LH3L1b (antibody, human IgG1, V domains shown, Humanized F3.38.7; VH H3 + VL L1b; expressed as human IgG1) VH: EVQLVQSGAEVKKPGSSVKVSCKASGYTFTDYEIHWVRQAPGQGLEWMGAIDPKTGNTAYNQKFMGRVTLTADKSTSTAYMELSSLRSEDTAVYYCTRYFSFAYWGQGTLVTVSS VL: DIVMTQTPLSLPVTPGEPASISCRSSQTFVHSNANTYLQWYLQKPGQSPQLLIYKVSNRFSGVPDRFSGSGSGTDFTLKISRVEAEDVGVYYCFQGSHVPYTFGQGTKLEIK
0.878

Look at this binder and give its reported OD450 at 0.02 nM. hAb007LH3L1a (antibody, human IgG1, V domains shown, Humanized F3.81.19; VH H3 + VL L1a; expressed as human IgG1) VH: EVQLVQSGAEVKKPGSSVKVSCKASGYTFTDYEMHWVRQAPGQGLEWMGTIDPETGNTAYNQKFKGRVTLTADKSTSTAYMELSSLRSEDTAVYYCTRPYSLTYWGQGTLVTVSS VL: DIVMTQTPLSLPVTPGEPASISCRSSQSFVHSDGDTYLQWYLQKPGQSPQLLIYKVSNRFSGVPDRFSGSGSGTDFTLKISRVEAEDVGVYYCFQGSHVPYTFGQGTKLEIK
0.14

Attention now turns to another entry.
Look at this binder and give its reported OD450 at 0.02 nM. hAb006LH3L1 (antibody, human IgG1, V domains shown, Humanized F3.38.7; VH H3 + VL L1; expressed as human IgG1) VH: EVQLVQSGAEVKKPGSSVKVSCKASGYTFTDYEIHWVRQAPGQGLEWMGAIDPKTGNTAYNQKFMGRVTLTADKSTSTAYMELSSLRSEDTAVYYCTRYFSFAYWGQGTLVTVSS VL: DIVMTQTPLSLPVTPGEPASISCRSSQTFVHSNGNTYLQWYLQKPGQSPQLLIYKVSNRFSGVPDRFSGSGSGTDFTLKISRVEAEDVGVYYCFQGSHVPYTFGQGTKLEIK
0.819
